tested on: Beta-hexosaminidase (Homo sapiens); experiment: Inhibition of human Placental beta-N-acetylglucosaminidase at 1000 uM
Measured parameter: inhibition (%)

(A) O=C(O)[C@@H]1NCCC[C@@H]1O
(B) O=C(O)[C@@H]1NC[C@@H](O)[C@@H](O)[C@@H]1O
[Q] Given A and B , report the one with the higher recorded inhibition. In your reply, give the label of the chosen option.
[A] A
(A: 46%, B: 2.1%)

* * *

molecular target: Alpha-N-acetylgalactosaminidase (Gallus gallus) (UniProt Q90744); experiment: Inhibition of chicken liver alpha-N-acetylgalactosaminidase at 1000 uM
Sequence (Q90744 whole entry): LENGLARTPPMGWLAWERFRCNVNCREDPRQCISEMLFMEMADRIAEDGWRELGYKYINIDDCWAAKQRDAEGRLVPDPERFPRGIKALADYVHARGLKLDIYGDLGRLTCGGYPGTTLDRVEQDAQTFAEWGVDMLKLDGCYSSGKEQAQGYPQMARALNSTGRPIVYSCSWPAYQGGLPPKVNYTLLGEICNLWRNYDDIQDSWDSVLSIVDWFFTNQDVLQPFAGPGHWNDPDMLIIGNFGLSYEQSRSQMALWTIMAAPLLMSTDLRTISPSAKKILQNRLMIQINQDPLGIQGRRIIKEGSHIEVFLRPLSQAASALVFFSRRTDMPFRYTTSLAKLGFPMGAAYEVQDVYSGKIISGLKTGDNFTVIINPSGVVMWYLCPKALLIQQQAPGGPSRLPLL
Measured parameter: inhibition (%)

Take a look at these entries with their results.
O=C(O)[C@@H]1NCC=C[C@H]1O : 3.2
O=C(O)[C@H]1NCCC[C@@H]1O : 5.2
O=C(O)[C@H]1NC[C@H](O)[C@H](O)[C@@H]1O : 4.5
O=C(O)[C@H]1NCCC[C@H]1O : 2.5
O=C(O)[C@@H]1NC[C@@H](O)[C@H](O)[C@@H]1O : 10

(P) O=C(O)[C@@H]1NC[C@H](O)[C@H](O)[C@H]1O
(Q) O=C(O)[C@@H]1NCC=C[C@@H]1O
[Q] Look at P and Q . Which one has the lower recorded inhibition number? In your reply, give the label of the chosen option.
[A] Q
